# systemUnderTest: T1, Fas/TNFSF6 (R&D Systems, cat. no. 126-FL/CF) (UniProt P48023 134-281)
# T1 sequence (looked up): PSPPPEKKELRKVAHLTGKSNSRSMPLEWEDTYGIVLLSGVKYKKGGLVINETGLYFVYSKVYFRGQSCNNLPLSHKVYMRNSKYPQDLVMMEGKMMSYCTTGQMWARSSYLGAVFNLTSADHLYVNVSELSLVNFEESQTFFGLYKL
# testSummary: ELISA, antigen coated at 1 µg/ml, Fab titrated
measuredParameter: binding result

Clone 2 Fab (Fab, V domains shown, Fab) VH: QVQLVQSGAEVKKPGASVKVSCKASGFDIQDTYMHWVRQAPGQGLEWMGRIEPASGHIKYSPKFQGRVTMTRDTSTSTVYMELSSLRSEDTAVYYCARSGGLPDWWGQGTTVTVSS VL: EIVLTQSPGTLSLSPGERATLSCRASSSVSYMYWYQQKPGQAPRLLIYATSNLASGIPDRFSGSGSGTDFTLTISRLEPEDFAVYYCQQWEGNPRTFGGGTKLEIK ... no binding
Clone 47 Fab (Fab, V domains shown, Fab; also called variant 47) VH: QVQLVQSGAEVKKPGASVKVSCKASGFDIQDTYMHWVRQAPGQGLEWMGRIEPASGHVKYDPKFQTRVTMTRDTSTSTVYMELSSLRSEDTAVYYCARSGGLPDWWGQGTTVTVSS VL: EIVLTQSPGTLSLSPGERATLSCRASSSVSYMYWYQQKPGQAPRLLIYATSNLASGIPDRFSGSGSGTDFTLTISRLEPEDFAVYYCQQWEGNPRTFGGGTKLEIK ... no binding
